meta.source: paper PMC8958325

Tested on: HeLa cells
Assay: Cell survival
Assay type: cell-based
Settings: Homo sapiens, 24 h, read-out: IC50 (μM) for cell survival
readout_label: IC50 (µM)
Entry rule: numbers only, all in µM.

[
  {
    "compound": "O=C(O)c1ccc(-c2c3ccc(=O)cc-3oc3cc(O)ccc23)cc1",
    "tgt": "HeLa cells",
    "observed": 208
  },
  {
    "compound": "O=c1cc2oc3cc(O)c(O)cc3c(-c3ccccc3O)c-2cc1O",
    "tgt": "HeLa cells",
    "observed": 62.2
  },
  {
    "compound": "O=C(O)C1CC=CCC1c1c2ccc(=O)cc-2oc2cc(O)ccc12 (stereo not shown)",
    "tgt": "HeLa cells",
    "observed": 428
  },
  {
    "compound": "COc1ccc(C2c3cc(O)c(OC)cc3Oc3cc(OC)c(O)cc32)cc1",
    "tgt": "HeLa cells",
    "observed": 27.7
  },
  {
    "compound": "O=C(O)c1cccc(-c2c3ccc(=O)cc-3oc3cc(O)ccc23)c1",
    "tgt": "HeLa cells",
    "observed": 75.3
  },
  {
    "compound": "CN(C)c1ccc(-c2c3cc(O)c(=O)cc-3oc3cc(O)c(O)cc23)cc1",
    "tgt": "HeLa cells",
    "observed": 7.67
  }
]

Output measured IC50 for this item: Cc1cc2c(-c3ccccc3)c3cc(C)c(N)cc3nc2cc1N
11.8
